Source: patent EP4755888A1

STUDY TARGET: PD-1/PD-L1 (Homo sapiens, UniProt Q9NZQ7)
Sequence (Q9NZQ7 19-238 limits assumed): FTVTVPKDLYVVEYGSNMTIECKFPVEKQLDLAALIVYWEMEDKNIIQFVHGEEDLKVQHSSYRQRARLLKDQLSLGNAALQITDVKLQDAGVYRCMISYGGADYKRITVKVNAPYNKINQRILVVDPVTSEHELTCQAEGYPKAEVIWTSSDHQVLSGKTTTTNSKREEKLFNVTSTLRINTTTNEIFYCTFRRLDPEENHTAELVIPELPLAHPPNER
ASSAY DETAILS: TR-FRET PD-1/PD-L1 binding inhibition at the molecular level (free proteins)
MEASUREMENT SETUP: Tag1-PD-L1 and Tag2-PD-1 proteins, twelve concentrations from 200 nM, 2 hours at room temperature, read-out: FRET assay (IC50)
pIC50: −log10 of the molar value.
Hi there, I'd appreciate the recorded pIC50 for every entry that follows.

Here are 5 molecules together with their reported answers.
MOLECULE	MEASURED
CN[C@@H]1CCCn2nc(C(=O)Nc3cccc(-c4cccc(Nc5nc(C(F)(F)F)nc6cc(CN7CC[C@@H](O)C7)cnc56)c4Cl)c3Cl)cc21	7.00 to 8.00
Cc1c(NC(=O)c2ccc(CN3CC[C@@H](O)C3)cn2)cccc1-c1cccc(NC(=O)c2cc3n(n2)CCC[C@H]3NCCO)c1C	> 8.00
Cc1c(NC(=O)c2ccc(CN3CC[C@@H](O)C3)cn2)cccc1-c1cccc(NC(=O)c2cc3n(n2)CCC[C@@H]3N2CC[C@@H](O)C2)c1C	> 8.00
O=C(Nc1cccc(-c2cccc(Nc3nc(C(F)(F)F)nc4cccnc34)c2Cl)c1Cl)c1cc2n(n1)CCC[C@@H]2N1CCC(C(=O)O)CC1	7.00 to 8.00
O=C(Nc1cccc(-c2cccc(Nc3nc(C(F)F)nc4cc(CN5CC(F)(F)C5)cnc34)c2Cl)c1Cl)c1cc2n(n1)CCC[C@@H]2N1CCC(O)CC1	7.00 to 8.00

Prompt line: Can you look up pIC50 on PD-1/PD-L1 (Homo sapiens, UniProt Q9NZQ7) for O=C(O)CNC1CCCn2nc(C(=O)Nc3cccc(-c4cccc(NC(=O)c5ncc(CNCCO)cc5F)c4Cl)c3Cl)cc21 (stereo not drawn) ?
Response line: > 8.00

----------
STUDY TARGET: PD-1/PD-L1 (Homo sapiens, UniProt Q9NZQ7)
ASSAY DETAILS: TR-FRET PD-1/PD-L1 binding inhibition at the molecular level (free proteins)
MEASUREMENT SETUP: Tag1-PD-L1 and Tag2-PD-1 proteins, twelve concentrations from 200 nM, 2 hours at room temperature, read-out: FRET assay (IC50)
pIC50: −log10 of the molar value.
I'd appreciate it if you could supply pIC50 values for the items below.

Guide cases for pIC50, answers given:
COMPOUND	pIC50
Cc1c(NC(=O)c2ccc(CN3CC[C@@H](O)C3)cn2)cccc1-c1cccc(NC(=O)c2cc3n(n2)CCN(CCO)C3)c1C	> 8.00
O=C(Nc1cccc(-c2cccc(NC(=O)c3cc4n(n3)CCCC4N3CC[C@@H](O)C3)c2Cl)c1Cl)c1ccc(CN2CC[C@@H](O)C2)cn1 (stereo partly drawn)	7.00 to 8.00

Then there is this compound:
Prompt line: Looking for the measured pIC50 of O=C(Nc1cccc(-c2cccc(NC(=O)c3cc4n(n3)CCC[C@@H]4NCCO)c2Cl)c1Cl)c1ccc(CNCCO)cn1 , can you help?
Response line: > 8.00

----------
STUDY TARGET: PD-1/PD-L1 (Homo sapiens, UniProt Q9NZQ7)
ASSAY DETAILS: TR-FRET PD-1/PD-L1 binding inhibition at the molecular level (free proteins)
MEASUREMENT SETUP: Tag1-PD-L1 and Tag2-PD-1 proteins, twelve concentrations from 200 nM, 2 hours at room temperature, read-out: FRET assay (IC50)
pIC50: −log10 of the molar value.
REPORTED METRIC: pIC50

Look up pIC50 for the entries below, preserving their order.
1. Cc1c(NC(=O)c2ccc(CN3CC[C@@H](O)C3)cn2)cccc1-c1cccc(NC(=O)c2cc3n(n2)CCCC3N2CCC(C(=O)O)CC2)c1C (stereo partly drawn)
2. Cc1c(NC(=O)c2cc3n(n2)CCCC3NCCO)cccc1-c1cccc(NC(=O)c2cc3n(n2)CCCC3NCCO)c1C (stereo not drawn)
3. COc1cc(-c2cccc(-c3cccc(NC(=O)c4cc5n(n4)CCCC5N4CC[C@@H](O)C4)c3C)c2C)cc(F)c1CNC(C)(C)C(=O)O (stereo partly drawn)
4. O=C(Nc1cccc(-c2cccc(Nc3nc(C(F)(F)F)nc4cc(CN5CC[C@@H](O)C5)cnc34)c2Cl)c1Cl)c1cc2n(n1)CCC[C@@H]2N1CCC(C(=O)O)CC1
5. Cc1c(NC(=O)c2cc3n(n2)CCC[C@@H]3N2CCC(C(=O)O)CC2)cccc1-c1cccc(Nc2nc(C(F)(F)F)nc3cc(CN4CC[C@@H](O)C4)cnc23)c1C
6. COc1cc(-c2cccc(-c3cccc(NC(=O)c4cc5n(n4)CCC[C@@H]5NCC(=O)O)c3Cl)c2Cl)cc(F)c1CNCCO

Response line:
> 8.00
> 8.00
> 8.00
7.00 to 8.00
7.00 to 8.00
> 8.00
